All values here come from patent US20170355734A1.

- measured.on: T1, wild-type rat apelin receptor-EGFP (rat, UniProt Q9JHG3 1-377, EGFP is fused at the C-terminal (intracellular) end of the receptor. It is not included in the letters.)
- T1 construct: Stably expressed in CHO cells; cAMP, internalization and ERK1/2 assays on whole cells; also called ApelinR-EGFP; APJ receptor; not shown: The EGFP fused to the receptor's C-terminus, and any linker to it
- T1 sequence: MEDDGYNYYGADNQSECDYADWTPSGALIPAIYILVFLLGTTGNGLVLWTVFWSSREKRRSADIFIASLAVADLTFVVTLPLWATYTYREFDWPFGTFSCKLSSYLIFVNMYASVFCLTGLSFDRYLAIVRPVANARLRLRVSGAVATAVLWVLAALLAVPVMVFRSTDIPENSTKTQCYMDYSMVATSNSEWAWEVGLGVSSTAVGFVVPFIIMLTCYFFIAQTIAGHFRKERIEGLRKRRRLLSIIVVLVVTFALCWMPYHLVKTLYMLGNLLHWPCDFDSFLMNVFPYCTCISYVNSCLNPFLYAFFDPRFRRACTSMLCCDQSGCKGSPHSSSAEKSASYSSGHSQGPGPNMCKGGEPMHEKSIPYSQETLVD
- experiment.notes: competitive radioligand binding vs [125I]-pE13F, membranes of CHO cells expressing rat apelin receptor-EGFP
- Protocol: Crude membrane preparation from CHO stably expressing the wild-type rat apelin receptor-EGFP, were prepared as previously described (39). […] The reaction was stopped by adding ice-cold binding buffer and filtered through glass microfiber filters (Whatman GF/C filters). Radioactivity was counted in Wizard 1470 Wallac gamma counter (Perkin Elmer, Turku, Finland).
parameter: Ki (nM)
Just the number please, in nM, no unit attached.

Measured Ki of H-KFRRQRPRLSHKGPMPF-OH [K17F (apelin-17)] : 0.06
